Tested on: 468 human kinases
Experiment: DiscoverX KINOMEscan panel, selectivity score
Assay type: binding
Settings: 1 μM, 468 human kinases, PoC ≤10% (>90% inhibition)
Quick rule for you: no. of kinase hits at 60 or higher means True, lower means False.

> print(dat)
                                   compound             system  label.value
1  O=C(c1ccc(Nc2ncc(Cl)c(-c3cc4ccccc4s3)n2)cc1)N1CCC(N2CCCC2)CC1 [Compound 18r]  468 human kinases         True
2  O=C(c1ccc(Nc2nccc(-c3cc4ccccc4s3)n2)cc1)N1CCC(N2CCCC2)CC1 [IKK16, reference compound]  468 human kinases        False
3  O=C(NCCCN1CCOCC1)c1ccc(Nc2nccc(-c3cc4ccccc4s3)n2)cc1  468 human kinases        False
4  O=C(c1ccc(Nc2ncc(Cl)c(-c3ccc(Cl)s3)n2)cc1)N1CCC(N2CCCC2)CC1 [Compound 23d]  468 human kinases         True
5  O=C(NCCCN1CCOCC1)c1ccc(Nc2ncc(Cl)c(-c3ccc(Cl)s3)n2)cc1 [Compound 23e]  468 human kinases         True
6  Cc1cnc(Nc2ccc(C(=O)N3CCC(N4CCCC4)CC3)cc2)nc1-c1cc2ccccc2s1 [Compound 18n]  468 human kinases         True
